# target: B1 bradykinin receptor (Homo sapiens)
# Sequence (P46663 whole entry): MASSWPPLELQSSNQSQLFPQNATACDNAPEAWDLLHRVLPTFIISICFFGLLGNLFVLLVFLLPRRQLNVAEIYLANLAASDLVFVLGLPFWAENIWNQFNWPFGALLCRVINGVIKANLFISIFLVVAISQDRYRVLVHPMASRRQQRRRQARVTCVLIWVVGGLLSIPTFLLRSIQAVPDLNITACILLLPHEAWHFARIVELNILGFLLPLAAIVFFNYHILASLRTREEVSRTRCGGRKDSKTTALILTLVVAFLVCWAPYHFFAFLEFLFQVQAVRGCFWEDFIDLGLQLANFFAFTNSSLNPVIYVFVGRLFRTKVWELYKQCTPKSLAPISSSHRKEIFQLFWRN
# assay.details: Activity at human bradykinin B1 receptor assessed as inhibition of Des-arg kallidin-induced increase of cytosolic calcium in CHO cells by FLIPR
# Type: functional, cell-based
measured.parameter: pIC50
Note: pIC50 values are expressed as the negative base-10 logarithm of concentration in M.

chemical.structure | pIC50
C[C@@H](NC(=O)C1(NC(=O)C(F)(F)F)CC1)c1ccc(-c2cccc(F)c2-c2nnn(C)n2)cc1F | 9.19
COC(=O)c1c(F)cccc1-c1ccc([C@@H](C)NC(=O)C2(NC(=O)C(F)(F)F)CC2)c(F)c1 | 8.72
CCOC(=O)c1c(Cl)cccc1-c1ccc([C@@H](C)NC(=O)C2(NC(=O)C(F)(F)F)CC2)c(F)c1 | 8.04
C[C@@H](NC(=O)C1(NC(=O)C(F)(F)F)CC1)c1ccc(-c2cccc(F)c2C(F)(F)F)cc1F | 8.14

Please turn your attention to the following entry.
Q. Enter reported pIC50 observed with B1 bradykinin receptor (Homo sapiens) for Cc1noc(-c2c(F)cccc2-c2ccc([C@@H](C)NC(=O)C3(NC(=O)C(F)(F)F)CC3)c(F)c2)n1
A. 9.05

meta.source: ChEMBL document CHEMBL1139836
